Entries and their measured pIC50 follow.
molecular target: G1 APOL1 (Homo sapiens, UniProt O14791, I384M/S342G); construct: expressed in transfected cells; experiment: Acute APOL1 Thallium Assay with inducible stable clones of HEK 293 cells; format: cell-based; conditions: Table 24, Compounds 287 to 465; read-out: Thallium Assay (IC50)
Sequence (O14791 28-398 S342G/I384M): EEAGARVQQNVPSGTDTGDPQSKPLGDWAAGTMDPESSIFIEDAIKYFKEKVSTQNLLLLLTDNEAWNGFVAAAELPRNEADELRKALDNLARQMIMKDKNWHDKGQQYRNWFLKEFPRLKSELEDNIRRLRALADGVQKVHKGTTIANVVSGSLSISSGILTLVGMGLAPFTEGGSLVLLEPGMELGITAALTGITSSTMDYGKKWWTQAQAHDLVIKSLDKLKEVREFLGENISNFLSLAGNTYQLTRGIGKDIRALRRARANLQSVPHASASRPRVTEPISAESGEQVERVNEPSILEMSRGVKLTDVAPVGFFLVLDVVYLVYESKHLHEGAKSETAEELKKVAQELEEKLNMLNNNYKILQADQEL
pIC50: −log10 of the molar value.
endpoint: pIC50

[[record]]
compound = "C[C@H](NCC1CC(c2c(-c3ccc(F)cc3)[nH]c3c(F)cc(F)cc23)C1)C(=O)N(C)C (some centres unmarked)"
target_system = "G1 APOL1 (Homo sapiens, UniProt O14791, I384M/S342G)"
experimental_value = "6.00 to 6.60"

[[record]]
compound = "CC(O)C(C)NC(=O)O[C@H]1C[C@H](c2c(-c3ccc(F)cc3)[nH]c3c(F)cc(F)cc32)C1 (mixture of isomers)"
target_system = "G1 APOL1 (Homo sapiens, UniProt O14791, I384M/S342G)"
experimental_value = "< 6.00"

[[record]]
compound = "O=C(NCc1cnco1)O[C@H]1C[C@H](c2c(-c3ccc(F)cc3)[nH]c3c(F)cc(F)cc32)C1"
target_system = "G1 APOL1 (Homo sapiens, UniProt O14791, I384M/S342G)"
experimental_value = "6.00 to 6.60"

[[record]]
compound = "O=C(CNC[C@H]1C[C@H](c2c(-c3ccc(F)cc3)[nH]c3c(F)cc(F)cc32)C1)NCO"
target_system = "G1 APOL1 (Homo sapiens, UniProt O14791, I384M/S342G)"
experimental_value = "> 6.60"

[[record]]
compound = "O=C(NCC(O)C(F)F)C1CC(Cc2c(-c3ccc(F)cc3)[nH]c3c(F)cc(F)cc23)C1 (centres unmarked)"
target_system = "G1 APOL1 (Homo sapiens, UniProt O14791, I384M/S342G)"
experimental_value = "< 6.00"

[[record]]
compound = "CC(C)(O)CNC(=O)C1CC(Cc2c(-c3ccc(F)cc3)[nH]c3c(F)cc(F)cc23)C1 (centres unmarked)"
target_system = "G1 APOL1 (Homo sapiens, UniProt O14791, I384M/S342G)"
experimental_value = "< 6.00"

[[record]]
compound = "O=C(N[C@H]1COC[C@@H]1O)O[C@H]1C[C@H](c2c(-c3ccc(F)cc3)[nH]c3c(F)cc(F)cc32)C1"
target_system = "G1 APOL1 (Homo sapiens, UniProt O14791, I384M/S342G)"
experimental_value = "< 6.00"

[[record]]
compound = "C[C@@H](O)[C@@H](CO)NC(=O)O[C@H]1C[C@H](c2c(-c3ccc(F)cc3)[nH]c3c(F)cc(F)cc32)C1"
target_system = "G1 APOL1 (Homo sapiens, UniProt O14791, I384M/S342G)"
experimental_value = "< 6.00"

[[record]]
compound = "CC1(C)CC(NC(=O)NC[C@H]2C[C@H](c3c(-c4ccc(F)cc4)[nH]c4c(F)cc(F)cc43)C2)C(=O)O1 (some centres unmarked)"
target_system = "G1 APOL1 (Homo sapiens, UniProt O14791, I384M/S342G)"
experimental_value = "< 6.00"

[[record]]
compound = "O=C(NC[C@H]1C[C@H](c2c(-c3ccc(F)cc3)[nH]c3c(F)cc(F)cc32)C1)NC1(CO)CC(F)(F)C1"
target_system = "G1 APOL1 (Homo sapiens, UniProt O14791, I384M/S342G)"
experimental_value = "< 6.00"

[[record]]
compound = "CC[C@H](NCC1CC(c2c(-c3ccc(F)cc3)[nH]c3c(F)cc(F)cc23)C1)C(=O)NCC(F)(F)F (some centres unmarked)"
target_system = "G1 APOL1 (Homo sapiens, UniProt O14791, I384M/S342G)"
experimental_value = "< 6.00"

[[record]]
compound = "C[C@@H](O)CNC(=O)N[C@H]1C[C@H](c2c(-c3ccc(F)cc3)[nH]c3c(F)cc(F)cc32)C1"
target_system = "G1 APOL1 (Homo sapiens, UniProt O14791, I384M/S342G)"
experimental_value = "< 6.00"

[[record]]
compound = "O=C(NCC(O)CO)O[C@H]1C[C@H](c2c(-c3ccc(F)cc3)[nH]c3c(F)cc(F)cc32)C1 (some centres unmarked)"
target_system = "G1 APOL1 (Homo sapiens, UniProt O14791, I384M/S342G)"
experimental_value = "< 6.00"

[[record]]
compound = "O=C(NCc1cnco1)C1CC(Cc2c(-c3ccc(F)cc3)[nH]c3c(F)cc(F)cc23)C1 (centres unmarked)"
target_system = "G1 APOL1 (Homo sapiens, UniProt O14791, I384M/S342G)"
experimental_value = "< 6.00"

[[record]]
compound = "CN(CC1CC(c2c(-c3ccc(F)cc3)[nH]c3c(F)cc(F)cc23)C1)C(=O)NCCO (centres unmarked)"
target_system = "G1 APOL1 (Homo sapiens, UniProt O14791, I384M/S342G)"
experimental_value = "< 6.00"

[[record]]
compound = "O=C(NC[C@H](O)C(F)(F)F)NC[C@H]1C[C@H](c2c(-c3ccc(F)cc3)[nH]c3c(F)cc(F)cc32)C1"
target_system = "G1 APOL1 (Homo sapiens, UniProt O14791, I384M/S342G)"
experimental_value = "< 6.00"

[[record]]
compound = "C[C@H](O)CNC(=O)O[C@H]1C[C@H](c2c(-c3ccc(F)cc3)[nH]c3c(F)cc(F)cc32)C1"
target_system = "G1 APOL1 (Homo sapiens, UniProt O14791, I384M/S342G)"
experimental_value = "< 6.00"

[[record]]
compound = "NC(=O)CC1CC(c2c(-c3ccc(F)cc3)[nH]c3c(F)cc(F)cc23)C1 (centres unmarked)"
target_system = "G1 APOL1 (Homo sapiens, UniProt O14791, I384M/S342G)"
experimental_value = "> 6.60"

[[record]]
compound = "O=C(NC1CC(O)C1)O[C@H]1C[C@H](c2c(-c3ccc(F)cc3)[nH]c3c(F)cc(F)cc32)C1 (some centres unmarked)"
target_system = "G1 APOL1 (Homo sapiens, UniProt O14791, I384M/S342G)"
experimental_value = "< 6.00"

[[record]]
compound = "O=C(NCC(F)F)O[C@H]1C[C@H](c2c(-c3ccc(F)cc3)[nH]c3c(F)cc(F)cc32)C1"
target_system = "G1 APOL1 (Homo sapiens, UniProt O14791, I384M/S342G)"
experimental_value = "6.00 to 6.60"

[[record]]
compound = "O=C(NCc1ncc[nH]1)C1CC(Cc2c(-c3ccc(F)cc3)[nH]c3c(F)cc(F)cc23)C1 (centres unmarked)"
target_system = "G1 APOL1 (Homo sapiens, UniProt O14791, I384M/S342G)"
experimental_value = "< 6.00"

[[record]]
compound = "C[C@@H](CO)NC(=O)CC1CC(c2c(-c3ccc(F)cc3)[nH]c3c(F)cc(F)cc23)C1 (some centres unmarked)"
target_system = "G1 APOL1 (Homo sapiens, UniProt O14791, I384M/S342G)"
experimental_value = "< 6.00"

[[record]]
compound = "O=C(NCC1(O)COC1)NC[C@H]1C[C@H](c2c(-c3ccc(F)cc3)[nH]c3c(F)cc(F)cc32)C1"
target_system = "G1 APOL1 (Homo sapiens, UniProt O14791, I384M/S342G)"
experimental_value = "< 6.00"

